# System: Staphylococcus aureus
# assay-comment: microbe, parasite or virus in culture
# study-conditions: ATCC 29213
attribute-measured: MIC (µg/mL)
Please state the figure in µg/mL; there is no need to write the unit.

Problem: Assign MIC to the following record: `CO[C@@H]1[C@@H](OC(N)=O)[C@@H](O)[C@H](Oc2ccc3c(O)c(NC(=O)c4cc(CC=C(C)C)c(O)c(CN(C)C(=O)CCC(=O)O)c4)c(=O)oc3c2C)OC1(C)C`
Solution: 64

Problem: Find the measured MIC of `CO[C@@H]1[C@@H](OC(N)=O)[C@@H](O)[C@H](Oc2ccc3c(O)c(NC(=O)c4cc(CC=C(C)C)c(O)c(CN(C)C(=O)C(C)(C)C)c4)c(=O)oc3c2C)OC1(C)C` and report it.
Solution: 16

Problem: Provide MIC value for the following compound: `CO[C@@H]1[C@@H](OC(N)=O)[C@@H](O)[C@H](Oc2ccc3c(O)c(NC(=O)c4cc(CC=C(C)C)c(O)c(CN(C)C(=O)CCCS(N)(=O)=O)c4)c(=O)oc3c2C)OC1(C)C`
Solution: 16

* * *

Known logD of a selection of compounds
# assay-comment: physchem
# study-conditions: octanol/water, pH 5
Field format: numeric only.

The following compounds have reported results that may help.
[[record]]
sample_smiles = "CO[C@@H]1[C@@H](OC(N)=O)[C@@H](O)[C@H](Oc2ccc3c(O)c(NC(=O)c4cc(CC=C(C)C)c(O)c(CN(C)C(=O)c5ccccc5)c4)c(=O)oc3c2C)OC1(C)C"
observed = 4.28

[[record]]
sample_smiles = "CO[C@@H]1[C@@H](OC(N)=O)[C@@H](O)[C@H](Oc2ccc3c(O)c(NC(=O)c4cc(CC=C(C)C)c(O)c(CN(C)C(=O)C(C)(C)C)c4)c(=O)oc3c2C)OC1(C)C"
observed = 4.23

[[record]]
sample_smiles = "CO[C@@H]1[C@@H](OC(N)=O)[C@@H](O)[C@H](Oc2ccc3c(O)c(NC(=O)c4cc(CC=C(C)C)c(O)c(CN5CCN(c6ncccn6)CC5)c4)c(=O)oc3c2C)OC1(C)C"
observed = 1.46


Problem: For `CO[C@@H]1[C@@H](OC(N)=O)[C@@H](O)[C@H](Oc2ccc3c(O)c(NC(=O)c4cc(CC=C(C)C)c(O)c(CN(C)C(=O)[C@H](C)OC(C)=O)c4)c(=O)oc3c2C)OC1(C)C` , write its logD.
Solution: 2.62

* * *

Quick reference: MIC of the listed items.
# System: Staphylococcus aureus
# assay-comment: microbe, parasite or virus in culture
# study-conditions: ATCC 29213
Just the number please, in µg/mL, no unit attached.

[[record]]
sample_smiles = "CO[C@@H]1[C@@H](OC(N)=O)[C@@H](O)[C@H](Oc2ccc3c(O)c(NC(=O)c4cc(CC=C(C)C)c(O)c(CN(C)C(=O)[C@H](C)OC(C)=O)c4)c(=O)oc3c2C)OC1(C)C"
attribute_measured = "MIC"
measurement_units = "µg/mL"
observed = 16


Problem: Please look at this molecule and report its MIC: `CO[C@@H]1[C@@H](OC(N)=O)[C@@H](O)[C@H](Oc2ccc3c(O)c(NC(=O)c4cc(CC=C(C)C)c(O)c(CN(C)C(=O)CNC(C)=O)c4)c(=O)oc3c2C)OC1(C)C`
Solution: 16
